# credit: patent US20230272048A1

Documented IC50 (read off the curve); axis Neutralisation (%), panel AD8 across a set of binders
# tested_on: AD8 WT Env (gp160, from lysed pseudovirions / on pseudovirus) (HIV-1 AD8, clade B)
# procedure_summary: cell-based or functional assay

Worked examples, 3 binders total:
binder: 1872 heavy chain with NC-Cow1 light chain (antibody) VH: KVQLRESGPSLVKPSQTLSLTCTASGFSLSDKAVGWVRQAPGQPLEWLGTIDTTGNAVYNPGLKSRLSITKDNSKSQVSLSLSSVTTEDSATYHCSTVHQKTRRSCPSDYSFICDCEGTGSHCCRASNCPYYCNYGRDRMCTGRSNIHEWHVDAWGQGLLVTVSS VL: HSYELTQPSSVSGSLGQRVSVTCSGSSSNVGNGYVSWYQLIPGSAPRTIIYGDTSRASGVPERFSGSRSGNTATLTISSLQAEDEADFFCASPDDSSSNAVFGSGTTLTVL
reported: ~7 ng/mL

binder: VRC01 (antibody, V domains shown) VH: QVQLVQSGGQMKKPGESMRISCRASGYEFIDCTLNWIRLAPGKRPEWMGWLKPRGGAVNYARPLQGRVTMTRDVYSDTAFLELRSLTVDDTAVYFCTRGKNCDYNWDFEHWGRGTPVIVSS VL: EIVLTQSPGTLSLSPGETAIISCRTSQYGSLAWYQQRPGQAPRLVIYSGSTRAAGIPDRFSGSRWGPDYNLTISNLESGDFGVYYCQQYEFFGQGTKVQVDI
reported: ~300 ng/mL

binder: MEL-1872 (antibody, also called H 1872; BrNAb MEL-1872) VH: KVQLRESGPSLVKPSQTLSLTCTASGFSLSDKAVGWVRQAPGQPLEWLGTIDTTGNAVYNPGLKSRLSITKDNSKSQVSLSLSSVTTEDSATYHCSTVHQKTRRSCPSDYSFICDCEGTGSHCCRASNCPYYCNYGRDRMCTGRSNIHEWHVDAWGQGLLVTVSS VL: QAVLTQPSSVSGSLGQRVSTTCSGSSSNVGNGYVSWYQLIPGSAPRTLIYGDTSRASGVPDRFSGSRSGNTVTLTISSLQAEDEADYFCASAEDGSSNAVFGRGTTLTV
reported: ~7 ng/mL

Now let's try a different one.
Form field: reported IC50 (read off the curve); axis Neutralisation (%), panel AD8 of 1842 heavy chain with NC-Cow1 light chain (antibody) VH: KVQLQESGPSLVKPSQTLSLTCTASGFSLSDKAVGWVRQAPGQALEWLGSIDTGGNADYNPGLKSRLSITKDNAKSQVSLSVSSVTTEGSATYYCSTVHQKTLRSCPSDYPYICDCEDTGSHCCRATNCPYYCNHGRDRMCTGRTYTYEWHVEAWGQGLLVTVSS VL: HSYELTQPSSVSGSLGQRVSVTCSGSSSNVGNGYVSWYQLIPGSAPRTIIYGDTSRASGVPERFSGSRSGNTATLTISSLQAEDEADFFCASPDDSSSNAVFGSGTTLTVL
~5 ng/mL
